# System: K4 kissing-loop RNA reporter;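 note: bound reporter read as fluorescence of individual clusters on recovered sequencing chips by microscopy, with normalized cluster intensities fitted with a binding model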
# measurement_description: apparent KD of K4 kissing-loop reporter; higher = weaker reporter binding
# measurement_setup: Eterna round: R107; input ligand: tryptophan 2.4 mM
Class 1: apparent KD of K4 kissing-loop reporter at least 200 nM. Class 0: apparent KD of K4 kissing-loop reporter below 200 nM.

# sequence_input, measurement_target, class_name
measured = [
    ("AAACUUGCAGUGAUGUUGCAAGUAGGUGAUACCAGCAUCGAAAGAUGCCCUUGGCAGCACCAUCUUGUAACAUAGGUAUCACCAA [(H1)-(H2)-(T1)-(T2)-(H)'-(T)'_Design4]", "K4 kissing-loop RNA reporter", 1),
    ("GCGAAGUGAUGUUUCGCCAAUAUUUGAUGAAAGGAUAUCUACUUGAAGAGAAGGUUCAUAUGACUCAAUACCUGACUUGGACCCG [theeternabot_sameState_KL_FMN_A_37]", "K4 kissing-loop RNA reporter", 0),
    ("ACCCUACUCGGGCGGCUAUACAGUUAAGCUAAGGAUAUGUAUUCGUACAGAAGGUAGAAGAAGCCGAGUGAUGUUCGACACGCCC [theeternabot_sameState_KL_FMN_A_24]", "K4 kissing-loop RNA reporter", 1),
    ("UCAUGAGAGACGGCCGCCACUGAAGCAGCUCUGUAAGAGCUGCAACAGUAGAGUGAUGUUCUGCGCAGGACCGGGUCGUCAUGAA [KL-SSTryp-B9]", "K4 kissing-loop RNA reporter", 1),
    ("GCCGUACGCAUGGAUACCAGCUAUUAGAGUGAUGUUCUAUGGCCCUGCCAGAGUAGCUGUAGCCCUUGGCAGCCAUGCGUACGGC", "K4 kissing-loop RNA reporter", 0),
    ("UGACUACAAAGGAAAUAAUCCUAGUGAUGUUAGGAUAUGCUGAUAAGCAGAAGGAACUGAGAUCGAAAGAUCUCAAAUGUAGUCU [FmnAX 26 Mat Inspired #SwitchBubble #StaticStem #K4Early]", "K4 kissing-loop RNA reporter", 0),
    ("UGAUAGGACAGAAGGAGCGGUAGUGAUGUUGCCAAAAGGGUAAGGUGUCAAAAGACACCCUGCCAGGUAGGUCGCUGUCCUAUCU", "K4 kissing-loop RNA reporter", 0),
    ("UUUCGUCUCUGAGGAUAUCAGAGGAGAGUGAUGUUCUCCCAUAGCCCAGUGAUGUUGGAUGCUAUCUGAGAAGGCAGUGGGCGAA [Same State FMN B GF 13]", "K4 kissing-loop RNA reporter", 0),
    ("GGGAGUGAUGUUCCCACGUUGUCGGUCCUUCGAGGACCGGUACGGCCGCCACUCGCGACCCAGUGAUGUUGGGAUUCACCGUACC [Exclusion Tryptophan A Gf 13]", "K4 kissing-loop RNA reporter", 1),
    ("CUAUGGGUGGACGAUACCAGCUAGUGAUGUUAGCGGGUCGAGCACGCGCAUCGCCGUGGUAGCCCUUGGCAGCGUACAGAUGUUU [theeternabot_exclusion_KL_Theo_B_5]", "K4 kissing-loop RNA reporter", 0),
]
